The entries below are paired with their reported growth at 10 µM.
system: TK-10; assay: Cytotoxicity against human TK10 cells assessed as cell growth at 10 uM after 48 hrs by SRB assay relative to control; type: functional; details: TK-10, 48 h, read-out: Activity
Reply numerically in %, unit not repeated.

Consider the worked cases shown below.
{"structure-string": "CC(C)=CCC[C@H](C)c1ccc(C)cc1O", "u": "%", "growth at 10 µM": 110}
{"structure-string": "CC(C)=CCC[C@H](C)c1ccc(C)c(CO)c1O", "u": "%", "growth at 10 µM": 103}

## Task What does the record list as growth at 10 µM for `CC(C)=CCC[C@H](C)c1ccc(C)c(CNCC2CCNCC2)c1O` ?
## Result 89.4

## Task What does the record list as growth at 10 µM for `CC(C)=CCC[C@H](C)c1ccc(C)c(CNCCO)c1O` ?
## Result 81

## Task What does the record list as growth at 10 µM for `COc1ccc(CCNCc2c(C)ccc([C@@H](C)CCC=C(C)C)c2O)cc1OC` ?
## Result 90.1

## Task What does the record list as growth at 10 µM for `CC(C)=CCC[C@H](C)c1ccc(C)c2c1OCN(CCCCC(=O)O)C2` ?
## Result 86.1

* * *

experiment: Cytotoxicity against human OVCAR8 cells assessed as cell growth at 10 uM after 48 hrs by SRB assay relative to control; type: functional; details: OVCAR-8, 48 h, read-out: Activity
The entries below are paired with their reported growth at 10 µM.
Reply numerically in %, unit not repeated.

Consider the worked cases shown below.
{"structure-string": "CC(C)=CCC[C@H](C)c1ccc(C)c(CNCCO)c1O", "u": "%", "growth at 10 µM": 89.6}
{"structure-string": "CC(C)=CCC[C@H](C)c1ccc(C)c2c1OCN(CCCCCO)C2", "u": "%", "growth at 10 µM": 90.1}

## Task What does the record list as growth at 10 µM for `CC(C)=CCC[C@H](C)c1ccc(C)c2c1OCN(CCCCC(=O)O)C2` ?
## Result 88.8

## Task What does the record list as growth at 10 µM for `COc1ccc(CCNCc2c(C)ccc([C@@H](C)CCC=C(C)C)c2O)cc1OC` ?
## Result 80.4

## Task What does the record list as growth at 10 µM for `CC(C)=CCC[C@H](C)c1ccc(C)c(CO)c1O` ?
## Result 92.1

* * *

tested on: SK-MEL-28; experiment: Cytotoxicity against human SK-MEL-28 cells assessed as cell growth at 10 uM after 48 hrs by SRB assay relative to control; assay type: functional; conditions: SK-MEL-28, 48 h, read-out: Activity
readout-name: growth at 10 µM (%)
Reply numerically in %, unit not repeated.

Consider the worked cases shown below.
{"structure-string": "CC(C)=CCC[C@H](C)c1ccc(C)c2c1OCN(CCCCC(=O)O)C2", "target-system": "SK-MEL-28", "u": "%", "growth at 10 µM": 115}
{"structure-string": "CC(C)=CCC[C@H](C)c1ccc(C)c2c1OCN(CCCCCO)C2", "target-system": "SK-MEL-28", "u": "%", "growth at 10 µM": 115}
{"structure-string": "CC(C)=CCC[C@H](C)c1ccc(C)c(CNCCO)c1O", "target-system": "SK-MEL-28", "u": "%", "growth at 10 µM": 112}
{"structure-string": "COc1ccc(CCN2COc3c([C@@H](C)CCC=C(C)C)ccc(C)c3C2)cc1OC", "target-system": "SK-MEL-28", "u": "%", "growth at 10 µM": -44}

## Task Form: Entry = `CC(C)=CCC[C@H](C)c1ccc(C)c(CO)c1O` | System = SK-MEL-28 | growth at 10 µM = ____
## Result 134

* * *

test system: MDA-MB-231; assay: Cytotoxicity against human MDA-MB-231 cells assessed as cell growth at 10 uM after 48 hrs by SRB assay relative to control; assay type: functional; conditions: MDA-MB-231, 48 h, read-out: Activity
Note to self: use Fulfilled only for growth at 10 µM readings below 90%; a reading exactly at 90% still gets Not fulfilled.

Check out these entries, answers already filled in.
{"structure-string": "CC(C)=CCC[C@H](C)c1ccc(C)c(CNCCCCC(=O)O)c1O", "category": "Not fulfilled"}
{"structure-string": "CC(C)=CCC[C@H](C)c1ccc(C)c2c1OCN(CCCCCO)C2", "category": "Not fulfilled"}
{"structure-string": "CC(C)=CCC[C@H](C)c1ccc(C)c(CO)c1O", "category": "Not fulfilled"}

## Task growth at 10 µM strictly < 90% for this compound? `CC(C)=CCC[C@H](C)c1ccc(C)c2c1OCN(CC1CCNCC1)C2`
## Result Fulfilled

## Task growth at 10 µM strictly < 90% for this compound? `CC(C)=CCC[C@H](C)c1ccc(C)c(CNCCCCCO)c1O`
## Result Not fulfilled

## Task growth at 10 µM strictly < 90% for this compound? `CC(C)=CCC[C@H](C)c1ccc(C)c(CNCC2CCNCC2)c1O`
## Result Fulfilled

* * *

The entries below are paired with their reported growth at 10 µM.
tested on: SF-539; experiment: Cytotoxicity against human SF539 cells assessed as cell growth at 10 uM after 48 hrs by SRB assay relative to control; type: functional; conditions: SF-539, 48 h, read-out: Activity
Reply numerically in %, unit not repeated.

Consider the worked cases shown below.
{"structure-string": "CC(C)=CCC[C@H](C)c1ccc(C)c2c1OCN(CCCCC(=O)O)C2", "target-system": "SF-539", "readout-name": "growth at 10 µM", "value": 91.8}
{"structure-string": "CC(C)=CCC[C@H](C)c1ccc(C)c(CO)c1O", "target-system": "SF-539", "readout-name": "growth at 10 µM", "value": 98.4}

## Task What does the record list as growth at 10 µM for `CC(C)=CCC[C@H](C)c1ccc(C)c(CNCCO)c1O` ?
## Result 96.5

* * *

tested on: MDA-MB-231; test: Cytotoxicity against human MDA-MB-231 cells assessed as cell growth at 10 uM after 48 hrs by SRB assay relative to control; format: functional; conditions: MDA-MB-231, 48 h, read-out: Activity
readout-name: growth at 10 µM (%)
Reply numerically in %, unit not repeated.

Consider the worked cases shown below.
{"structure-string": "COc1ccc(CCNCc2c(C)ccc([C@@H](C)CCC=C(C)C)c2O)cc1OC", "target-system": "MDA-MB-231", "value": 87.7}
{"structure-string": "CC(C)=CCC[C@H](C)c1ccc(C)c2c1OCN(CCO)C2", "target-system": "MDA-MB-231", "value": 88.8}

Here is the next item to consider.
## Task What does the record list as growth at 10 µM for `CC(C)=CCC[C@H](C)c1ccc(C)c2c1OCN(CCCCC(=O)O)C2` ?
## Result 91.8
